- measurement-target: IRAK4 (Homo sapiens (Human), UniProt Q9NWZ3)
- test-description: IRAK4 Biochemical HTRF Kinase Assay
- applied-conditions: Table 5; multiple runs; read-out: IRAK4 HTRF biochemical: IC50
- Sequence (Q9NWZ3 whole entry, species assumed): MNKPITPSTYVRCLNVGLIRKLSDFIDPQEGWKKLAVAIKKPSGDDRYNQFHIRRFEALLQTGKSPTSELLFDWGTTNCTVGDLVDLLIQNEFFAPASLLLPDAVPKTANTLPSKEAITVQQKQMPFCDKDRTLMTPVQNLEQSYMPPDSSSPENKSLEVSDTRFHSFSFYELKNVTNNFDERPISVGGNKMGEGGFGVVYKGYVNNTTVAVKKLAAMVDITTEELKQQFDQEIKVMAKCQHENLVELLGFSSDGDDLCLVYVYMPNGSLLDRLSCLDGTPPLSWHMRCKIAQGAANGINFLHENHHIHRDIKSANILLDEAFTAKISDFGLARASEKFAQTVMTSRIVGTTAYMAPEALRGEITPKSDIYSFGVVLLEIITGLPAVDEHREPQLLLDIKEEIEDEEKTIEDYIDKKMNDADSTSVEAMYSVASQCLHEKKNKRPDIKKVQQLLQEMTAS
measurement-kind: pIC50
Here pIC50 is given on a logarithmic scale as minus log10 of the concentration in mol/L.

CC(C)Nc1cc(-c2ccc3cc(C#N)cnn23)ncc1-c1nnc(N2CCN(C(=O)CCN3CCN(c4ccc5c(c4)C(=O)N(C4CCC(=O)NC4=O)C5=O)CC3)CC2)s1 (centres unmarked)    9.10

Inquiry: Quick one: give measured pIC50 for CC(C)Nc1cc(-c2ccc3cc(C#N)cnn23)ncc1-c1nnc(N2CCN(C(=O)CNc3cccc4c3C(=O)N(C3CCC(=O)NC3=O)C4=O)CC2)s1 (centres unmarked)
Reply text: 8.77

Inquiry: Quick one: give measured pIC50 for CNc1cc(-c2ccc3cc(C#N)cnn23)ncc1-c1nnc(N2CCC(NC(=O)CCC(=O)N[C@H](C(=O)N3C[C@H](O)C[C@H]3C(=O)N[C@@H](C)c3ccc(-c4scnc4C)cc3)C(C)(C)C)CC2)s1
Reply text: 8.80

Inquiry: Quick one: give measured pIC50 for CC(C)Nc1cc(-c2ccc3cc(C#N)cnn23)ncc1-c1nnc(N2CCN(Cc3ccc4c(c3)C(=O)N(C3CCC(=O)NC3=O)C4=O)CC2)s1 (centres unmarked)
Reply text: 8.70

Inquiry: Quick one: give measured pIC50 for CC(C)Nc1cc(-c2ccc3cc(C#N)cnn23)ncc1-c1nnc(N2CCN(C(=O)C3CCN(Cc4ccc5c(c4)C(=O)N(C4CCC(=O)NC4=O)C5=O)CC3)CC2)s1 (centres unmarked)
Reply text: 9.10

---

Collected Dmax values appear next to each entry.
- measurement-target: IRAK4 (Homo sapiens (Human))
- test-description: IRAK4 Degradation HiBiT Assay
- applied-conditions: Jurkat, read-out: Cellular IRAK4 HiBiT: Dmax, Table 5; multiple runs; HiBiT-tagged Jurkat cells, 4 hrs
- Sequence (Q9NWZ3 whole entry): as the sequence (Q9NWZ3 whole entry, species assumed) above
Reply with just the number (in %).

CNc1cc(-c2ccc3cc(C#N)cnn23)ncc1-c1nnc([C@H]2CC[C@H](NC(=O)CCCCCNc3ccc4c(c3)C(=O)N(C3CCC(=O)NC3=O)C4=O)CC2)s1 (some centres unmarked)    101
Cc1ncsc1-c1ccc([C@H](C)NC(=O)[C@@H]2C[C@@H](O)CN2C(=O)[C@@H](NC(=O)CCCCCCCC(=O)N2CCN(c3nnc(-c4cnc(-c5ccc6cc(C#N)cnn56)cc4NC(C)C)s3)CC2)C(C)(C)C)cc1    85

Inquiry: Quick one: give measured Dmax for CNc1cc(-c2ccc3cc(C#N)cnn23)ncc1-c1nnc(N2CC3(CCN(C(=O)C[C@H](NC(=O)[C@@H]4C[C@@H](O)CN4C(=O)[C@@H](NC(=O)C4(F)CC4)C(C)(C)C)c4ccc(-c5scnc5C)cc4)CC3)C2)s1
Reply text: 113

Inquiry: Quick one: give measured Dmax for CC(C)Nc1cc(-c2ccc3cc(C#N)cnn23)ncc1-c1nnc(N2CCN(C(=O)CCCCCCCNc3cccc4c3C(=O)N(C3CCC(=O)NC3=O)C4=O)CC2)s1 (centres unmarked)
Reply text: 100

Inquiry: Quick one: give measured Dmax for CC(C)Nc1cc(-c2ccc3cc(C#N)cnn23)ncc1-c1nnc(N2CCN(C3CCN(Cc4ccc5c(c4)C(=O)N(C4CCC(=O)NC4=O)C5=O)CC3)CC2)s1 (centres unmarked)
Reply text: 87
